# assay-details: Stability of QC samples after three freeze-thaw cycles (HPLC)
# Assay type: physicochemical
# experimental-parameters: QC sample 60 μM, three freeze (−20 °C)-thaw cycles, percentage remains
Entries annotated with measured Stability
Output spec: scalar in %, unitless text.

Below, 5 compounds whose answers are already recorded.
• C=C[C@H]1CN2CC[C@]3(C(=O)Nc4ccccc43)[C@@H]2C[C@@H]1/C(=C\OC)C(=O)OC = 102.37
• CC[C@H]1CN2CCc3c([nH]c4ccccc34)[C@H]2C[C@@H]1/C(=C\OC)C(=O)OC = 101.9
• CC[C@H]1CN2CC[C@]3(C(=O)Nc4ccccc43)[C@@H]2C[C@@H]1/C(=C\OC)C(=O)OC = 96.86
• C=C[C@H]1CN2CC[C@@]3(C(=O)Nc4ccccc43)[C@@H]2C[C@@H]1/C(=C\OC)C(=O)OC = 102.72
• C=C[C@H]1CN2CCc3c([nH]c4ccccc34)[C@H]2C[C@@H]1/C(=C\OC)C(=O)OC = 103.80

Below: the item to evaluate.
Q: Give the measured Stability of CC[C@H]1CN2CC[C@@]3(C(=O)Nc4ccccc43)[C@@H]2C[C@@H]1/C(=C\OC)C(=O)OC .
Result: 100.08

Data origin: paper PMC6150385
